test system: intracellular amastigote form of Leishmania amazonensis; assay: Antiamastigote activity assay (infected peritoneal macrophages, infection index); type: cell-based; conditions: Macrophage, 72 h, L. amazonensis in murine macrophages, mean ± SD from three independent experiments, read-out: Intracellular Amastigotes IC50 (µM/72 h)
readout.type: IC50

CC1(Cc2ccccc2)CC(C(=O)Nc2ccc(Br)cn2)=C(c2ccc(C(N)=NO)cc2)O1 (stereo not drawn) [Compound 14]; 0.5 µM
CC1(Cc2ccccc2)CC(C(=O)Nc2ccc(Cl)cn2)=C(c2ccc(C(N)=NO)cc2)O1 (stereo not drawn) [Compound 15]; 0.6 µM
Cc1ccc(NC(=O)C2=C(c3ccc(C(N)=NO)cc3)OC(C)(Cc3ccccc3)C2)nc1 (stereo not drawn) [Compound 16]; 0.3 µM
